# Tested on: ER-alpha MCF7
# assay method text: ER-alpha MCF7 HCS EC50; stated as measured by in vitro cell proliferation assays of Examples 902 and 903
# Type: cell-based
# condition info: Homo sapiens, MCF7, MCF7 cells; Table 2
Please use fulfilled for EC50 under 0.1 nM and not fulfilled for everything else, ties included.

Solved entries (count: 4):
line notation | assigned label
C[C@@H]1Cc2c([nH]c3ccccc23)[C@@H](c2c(F)cc(OCCN3CC(CF)C3)cc2F)N1C[C@@H](F)CO | fulfilled
C[C@@H]1Cc2c([nH]c3ccccc23)[C@@H](c2ccc(NC3CN(CCCF)C3)cc2)N1C[C@](C)(F)CO | not fulfilled
C[C@@H]1Cc2c([nH]c3ccccc23)[C@@H](c2c(F)cc(OCCN3CC(CF)C3)cc2F)N1C(=O)CCC#N | not fulfilled
C[C@@H]1Cc2c([nH]c3ccccc23)[C@@H](c2c(F)cc(OC3CN(C4CC4)C3)cc2F)N1CC(C)(C)F | not fulfilled

Prompt: Input CC1CN(CCOc2cc(F)c([C@@H]3c4[nH]c5ccccc5c4C[C@@H](C)N3CC(C)(C)F)c(F)c2)C1 ; condition: EC50 strictly below 0.1 nM. Does it hold?
Response: not fulfilled

====

# Test system: ER-alpha MCF7
# assay method text: ER-alpha MCF7 HCS EC50; stated as measured by in vitro cell proliferation assays of Examples 902 and 903
# Format: cell-based
# condition info: Homo sapiens, MCF7, MCF7 cells; Table 2
parameter measured: EC50 (nM)
Express the result in nM but write the number alone.

Would you please look over these solved cases?
molecule | unit abbreviation | EC50
C[C@@H]1CCN(CCOc2cc(F)c([C@@H]3c4[nH]c5ccccc5c4C[C@@H](C)N3CC(C)(C)F)c(F)c2)C1 [Example 141] | nM | 0.151
CC(C)N1CC(Oc2cc(F)c([C@@H]3c4[nH]c5ccccc5c4C[C@@H](C)N3CC(C)(C)F)c(F)c2)C1 [Example 168] | nM | 0.122
C[C@@H]1Cc2c([nH]c3ccccc23)[C@@H](c2c(F)cc(OCCCN3CC(CF)C3)cc2F)N1CC(C)(C)F [Example 143] | nM | 0.078
C[C@H]1Cc2c([nH]c3ccc(F)cc23)[C@H](c2c(F)cc(NC3CN(CCCF)C3)cc2F)N1CC(F)F [Example 390] | nM | 9.7
CCN1CC(Oc2cc(F)c([C@@H]3c4[nH]c5ccccc5c4C[C@@H](C)N3CC(C)(C)F)c(F)c2)C1 [Example 162] | nM | 0.0528

Prompt: For the molecule C[C@@H]1Cc2c([nH]c3ccccc23)[C@@H](c2c(F)cc(OC3CN(CCCF)C3)cc2F)N1CC(C)(C)CO [Example 284] , give its reported EC50.
Response: 0.382

====

compounds and their reported log10 EC50
# Test system: ER-alpha MCF7
# assay method text: ER-alpha MCF7 HCS EC50; stated as measured by in vitro cell proliferation assays of Examples 902 and 903
# Assay type: cell-based
# condition info: Homo sapiens, MCF7, MCF7 cells; Table 2
Would you kindly interpret these values as log10 of EC50 expressed in nM?

Would you please look over these solved cases?
compound | value
C[C@@H]1Cc2c([nH]c3ccccc23)[C@@H](c2c(F)cc(OCCN3CC(CF)C3)cc2F)N1C[C@](C)(F)CO [Example 154] | -1.48
C[C@@H]1Cc2c([nH]c3ccccc23)[C@@H](c2ccc(NC3CN(CCCF)C3)cc2)N1C[C@@](C)(F)CO [Example 292] | 0.30
C[C@@H]1Cc2c([nH]c3ccccc23)[C@@H](c2ccc(NCCN3CC(CF)C3)cc2F)N1CC(C)(F)CO (stereo partly drawn) [Example 327] | -0.46
C[C@H]1Cc2c([nH]c3cc(F)ccc23)[C@H](c2c(F)cc(NC3CN(CCCF)C3)cc2F)N1C[C@](C)(F)CO [Example 412] | 0.11
C[C@@H]1Cc2c([nH]c3cccc(F)c23)[C@@H](c2c(F)cc(NC3CN(CCCF)C3)cc2F)N1CC(F)(F)CO [Example 416] | -1.62

Prompt: For the compound C[C@@H]1Cc2c([nH]c3ccccc23)[C@@H](c2c(F)cc(NC3CN(CCCF)C3)cc2F)N1CC(C)(C)C(=O)O [Example 382] , give its reported log10 EC50.
Response: 0.00

Prompt: For the compound C[C@@H]1Cc2c([nH]c3cc(F)ccc23)[C@@H](c2c(F)cc(NC3CN(CCCF)C3)cc2F)N1C[C@@](C)(F)CO [Example 413] , give its reported log10 EC50.
Response: -1.74

Prompt: For the compound C[C@@H]1Cc2c([nH]c3ccccc23)[C@@H](c2c(F)cc(NC3CN(CCCF)C3)cc2F)N1C[C@@](F)(C#N)CO [Example 418] , give its reported log10 EC50.
Response: -1.48

Source: patent US20250114338A1
